Test system: Plasmodium falciparum
Assay procedure: MMV: Measure of pLDH activity as indication of parasite viability. Gametocytogenesis of 3D7 Plasmodium falciparum strain was induced in vitro and asexual parasites were depleted with N-acetylglucosamine. Gametocytes were treated with dihydroartemisinin, epoxomicin, methylene blue, primaquine, puromycin or chloroquine in 96-well plates and the pLDH activity was evaluated using a modified Makler protocol. Mosquito infectivity was measured by the standard membrane feeding assay.
Type: functional
Set-up: concentration or dose not given beside the values
Returns: string. Value is true if measured Growth Inhibition is below 10%, and false if it is greater than or equal to it.

Compound	Measured on	Group label
COc1ccccc1N1CCN(C(CNS(=O)(=O)c2ccc(Cl)cc2)c2cccnc2)CC1 (centres undefined)	Plasmodium falciparum	false
CCOC(=O)C1=C(c2ccccc2)N=c2sc(=Cc3cc(C)n(-c4ccc(F)cc4)c3C)c(=O)n2C1c1cccc(OC)c1OC (centres undefined)	Plasmodium falciparum	true
CCOc1cc(Cl)c(C(C)NC(=O)c2cccc(OC)c2)cc1OCC (centres undefined)	Plasmodium falciparum	false
CCOC(=O)c1ccc2nc(-c3ccccc3)cc(O)c2c1	Plasmodium falciparum	false
CN1c2ccccc2N(C)C1c1ccc2c(c1)OCO2	Plasmodium falciparum	false

Given CCc1ccc(CNCC(O)c2ccccc2)cc1.Cl (centres undefined) , is recorded Growth Inhibition strictly lower than 10%?
false

Decide: Growth Inhibition of Cc1ccc2cc3c(N)c4c(C)ccc(C)c4nc3nc2c1 strictly below 10%?
false

# TODO verify Growth Inhibition < 10% strictly for this compound: CCOc1ccc(CN2CCN(CC(O)COc3ccc(OCC(O)CN4CCN(Cc5ccc(OCC)cc5)CC4)cc3)CC2)cc1 (centres undefined)
false

Is it true that Growth Inhibition reported for CC(C)(C)c1ccc(C(=O)Nc2nc3ccccc3s2)cc1 is less than 10%?
true

I'd appreciate it if you could check whether CCc1ccc(Nc2cc(C)nc3nc(C)nn23)cc1 has Growth Inhibition smaller than 10%.
true

Take the compound CCCCOC(=O)c1ccc(Nc2cc(C)nc3ccc(OC)cc23)cc1 and say whether its Growth Inhibition is less than 10%.
false

Input COc1ccc(C(=O)C2CC2c2ccc(Cl)cc2)cc1 (centres undefined) ; condition: Growth Inhibition strictly below 10%. Does it hold?
true

Could you please tell me whether Growth Inhibition recorded for CN(C)CCCNc1c2ccccc2nc2ccccc12 is less than 10%?
true

Criterion: Growth Inhibition strictly below 10%. Is it met by Cc1sc2ncnc(Sc3nc4ccccc4[nH]3)c2c1C ?
false

Is Growth Inhibition strictly under 10% for the entry CCCCOc1ccc(C(=O)Nc2cc(C)on2)cc1 ?
true

====

Tested on: Plasmodium falciparum
Assay procedure: MMV: Measure of pLDH activity as indication of parasite viability. Gametocytogenesis of 3D7 Plasmodium falciparum strain was induced in vitro and asexual parasites were depleted with N-acetylglucosamine. Gametocytes were treated with dihydroartemisinin, epoxomicin, methylene blue, primaquine, puromycin or chloroquine in 96-well plates and the pLDH activity was evaluated using a modified Makler protocol. Mosquito infectivity was measured by the standard membrane feeding assay.
Type: functional
Design: concentration or dose not given beside the values
Hi all, reminder that labels come from Growth Inhibition, split as low: < 10%; moderate: ≥ 10% and < 30%; high: ≥ 30%

Worked set:
Molecule	Group label
COc1ccc(C(=O)NC(c2ccccc2Cl)c2cc(Cl)c3cccnc3c2O)cc1 (configuration not stated)	moderate
Cc1ccc(-c2cc3c(nn2)-c2ccccc2C3=O)cc1	high
COc1ccc(-c2nonc2NC(=O)c2cccc(Cl)c2)cc1OC	low
COc1ccc2c(=O)cc(C(Cl)(Cl)Cl)oc2c1	moderate
COc1ccc(C2c3ccc4ccccc4c3Oc3ncn(CCCN(C)C)c(=N)c32)cc1 (configuration not stated)	high
COc1ccccc1CNC(=O)CCn1c(=O)[nH]c2ccsc2c1=O	low
CCOC(=O)C1(Cc2ccccc2)CCN(Cc2cccc(OC)c2O)CC1	high
CCOc1cc(Br)c(C(C)NC(=O)c2cccc(OC)c2)cc1OCC (configuration not stated)	moderate

Alright, here's another molecule for you.
Please classify: COc1cccc(O)c1CN1CCC2(CCCN(Cc3ccc(F)cc3)C2)C1 (configuration not stated)
high

====

System: Plasmodium falciparum
Assay procedure: MMV: Measure of pLDH activity as indication of parasite viability. Gametocytogenesis of 3D7 Plasmodium falciparum strain was induced in vitro and asexual parasites were depleted with N-acetylglucosamine. Gametocytes were treated with dihydroartemisinin, epoxomicin, methylene blue, primaquine, puromycin or chloroquine in 96-well plates and the pLDH activity was evaluated using a modified Makler protocol. Mosquito infectivity was measured by the standard membrane feeding assay.
Assay type: functional
Parameters: concentration or dose not given beside the values
Recorded measurements of Growth Inhibition, one per entry
All answers are understood in %, so give the number only.

Molecule	Measured metric	Unit abbrev	Value measured
COc1cc(OC)cc(N2C(=O)N(Cc3ccc(C(C)(C)C)cc3)c3ccccc3S2(=O)=O)c1	Growth Inhibition	%	5.995
Cc1ccc2c(C)nc(Nc3nc(C)cc(-c4ccccc4)n3)nc2c1	Growth Inhibition	%	-3.9148
CN1CCN(c2nc(Nc3ccc(O)cc3)nc3ccccc23)CC1.Cl	Growth Inhibition	%	11.7422
CC(=O)c1sc(NC(=O)Nc2ccc(C)cc2C)nc1C	Growth Inhibition	%	12.9136
Cc1cc(NC(=O)c2ccc(-c3ccccc3)cc2)no1	Growth Inhibition	%	4.97

For COc1ccc(-c2nc(NC(=O)CS(=O)(=O)c3ccc(F)cc3)sc2C)cc1 , write its Growth Inhibition.
30.52

Input COc1ccc(C(=O)Nc2ccc(Cl)cc2C(=O)Nc2ccncc2)cc1 , output reported Growth Inhibition.
8.2224

Write down Growth Inhibition measured for item CCOC(=O)c1cn(CC)c2cc(N3CCCCC3)c(F)cc2c1=O
27.8444

Give reported Growth Inhibition value for CCCCC(O)(c1ccc(Cl)cc1)C(CN1CCOCC1)c1ccc(Cl)cc1.Cl (stereo not drawn)
3.244

Give the measured Growth Inhibition for CSC1=NC(=Nc2c(C)cccc2C)C2(CCC(C(C)(C)C)CC2)N1c1ccc(Cl)cc1 (stereo not drawn)
-2.9236

====

Test system: Plasmodium falciparum
Assay procedure: MMV: Measure of pLDH activity as indication of parasite viability. Gametocytogenesis of 3D7 Plasmodium falciparum strain was induced in vitro and asexual parasites were depleted with N-acetylglucosamine. Gametocytes were treated with dihydroartemisinin, epoxomicin, methylene blue, primaquine, puromycin or chloroquine in 96-well plates and the pLDH activity was evaluated using a modified Makler protocol. Mosquito infectivity was measured by the standard membrane feeding assay.
Format: functional
Design: concentration or dose not given beside the values
Label T when Growth Inhibition is strictly below 10%; at or above that, label F.

# count of solved cases: 3
Molecule smiles	Group label
O=C(Nc1ccsc1C(=O)NC1CCCCC1)c1ccc(F)cc1	T
CCOc1ccc(Nc2ccnc3cc(Cl)ccc23)cc1	T
O=C(Nc1ccc(Br)cc1)Nc1cccc(Cl)c1	T

hey, is Growth Inhibition for CCOc1ccc2nc(C)cc(Nc3ccc(Br)cc3)c2c1 lower than 10% or not?
T

For this compound, is Growth Inhibition lower than 10%? FC(F)(F)c1cccc(CNC2CCN(CCc3ccccc3)CC2)c1
F

Report whether reported Growth Inhibition is lower than 10% (strictly) for O=c1cc(NC2CCN(CCCc3ccccc3)CC2)c2cc(Cl)ccc2o1
F

====

Test system: Plasmodium falciparum
Assay procedure: MMV: Measure of pLDH activity as indication of parasite viability. Gametocytogenesis of 3D7 Plasmodium falciparum strain was induced in vitro and asexual parasites were depleted with N-acetylglucosamine. Gametocytes were treated with dihydroartemisinin, epoxomicin, methylene blue, primaquine, puromycin or chloroquine in 96-well plates and the pLDH activity was evaluated using a modified Makler protocol. Mosquito infectivity was measured by the standard membrane feeding assay.
Type: functional
Parameters: concentration or dose not given beside the values
Measured metric: Growth Inhibition

Compound	Measured on	Value measured
COc1cccc(Cn2c(Oc3ccccc3)nc3c2c(=O)n(C)c(=O)n3C)c1	Plasmodium falciparum	5.4442%
Cc1ccc2nc(C)cc(Nc3cccc(C(F)(F)F)c3)c2c1.Cl	Plasmodium falciparum	-5.193%

Could you please provide reported Growth Inhibition for Cc1ccc(N2C(=O)C3C(C2=O)C2(c4ccccc4)C(=O)C3(c3ccccc3)C(c3ccccc3)=C2c2ccccc2)cc1 (stereo unspecified) ? Thanks!
4.6846%

Given the compound CC(O)(c1ccc(Cl)cc1)C(CN1CCCCC1)c1ccccc1.Cl (stereo unspecified) , write its reported Growth Inhibition.
18.9754%

Given the compound Cn1c(=O)c2cc(C(=O)NCCCN3CCCCCC3)sc2c2ccccc21 , write its reported Growth Inhibition.
15.852%

Give reported Growth Inhibition value for CCN(CC)c1cc(C)c2cc(NC(=O)c3cccc(OC)c3)ccc2n1
11.335%

Assign Growth Inhibition to the following record: OC(Cn1nnc2ccccc21)Cn1c2ccc(Br)cc2c2cc(Br)ccc21 (stereo unspecified)
11.39%

Annotate the compound C=CC12CCN(CC1)C(C(O)c1ccnc3ccc(OC)cc13)C2.Cl (stereo unspecified) with its measured Growth Inhibition.
15.913%

Read off the recorded Growth Inhibition for O=C(Nc1ccc(-c2nc3cc(NC(=O)c4ccc(Cl)cc4)ccc3[nH]2)cc1)c1ccc(Cl)cc1
18.844%

Entry Cl.c1ccc2c(NCCCCCCNc3c4c(nc5ccccc35)CCCC4)c3c(nc2c1)CCCC3 needs its Growth Inhibition filled in; supply it.
77.595%

Read off the recorded Growth Inhibition for CCCCc1c(CCC)c(=N)c2ccccc2n1C.I
1.3375%

Specify reported Growth Inhibition for the compound shown: c1ccc(-c2ccc(-c3nc4ccccc4[nH]3)cc2)cc1
7.2118%

Read the entry COc1ccc(C(C)=O)cc1N1C(=O)C2C(C1=O)C1(c3ccccc3)C(=O)C2(c2ccccc2)C(c2ccc(C)cc2)=C1c1ccc(C)cc1 (stereo unspecified) and write its reported Growth Inhibition.
-2.6232%

Return Growth Inhibition for the following compound: CCOC(=O)c1cnc2c(C)cccc2c1Nc1ccc(C(C)=O)cc1
14.9964%

Fill in reported Growth Inhibition for this entry: CCN(CC)CCNc1ncnc2c1[nH]c1ccc(Br)cc12
8.817%

Answer with the recorded Growth Inhibition for the compound listed here: CC(C)c1ccc(CNCC(O)c2ccccc2)cc1.Cl (stereo unspecified)
37.0308%

Note down Growth Inhibition recorded for O=C1c2ccccc2-c2nnc(-c3ccc(Br)cc3)cc21
29.9528%

For the compound O=C(Nc1ccc(N2CCCCC2)c(Cl)c1)c1ccc(Br)o1 , give its measured Growth Inhibition value.
-4.8588%

Tell me measured Growth Inhibition for Cc1ccccc1OCCSc1nc2ccc(NC(=O)c3cccs3)cc2s1 please.
6.631%

Item COc1ccc(C(=O)Nc2ccc3nc(N4CCCCC4)cc(C)c3c2)cc1OC : provide Growth Inhibition
11.0486%

Identify the reported Growth Inhibition for the following entry. CCN(CC)c1ccc(NC(=O)c2cccs2)cc1
3.9542%

Measured values drawn from ChEMBL document CHEMBL3301555 for this set.
